Hello, the source for this data is paper PMC9334755, in case you need it.

measuredTarget: EGFR (Homo sapiens)
Sequence (P00533 25-1210): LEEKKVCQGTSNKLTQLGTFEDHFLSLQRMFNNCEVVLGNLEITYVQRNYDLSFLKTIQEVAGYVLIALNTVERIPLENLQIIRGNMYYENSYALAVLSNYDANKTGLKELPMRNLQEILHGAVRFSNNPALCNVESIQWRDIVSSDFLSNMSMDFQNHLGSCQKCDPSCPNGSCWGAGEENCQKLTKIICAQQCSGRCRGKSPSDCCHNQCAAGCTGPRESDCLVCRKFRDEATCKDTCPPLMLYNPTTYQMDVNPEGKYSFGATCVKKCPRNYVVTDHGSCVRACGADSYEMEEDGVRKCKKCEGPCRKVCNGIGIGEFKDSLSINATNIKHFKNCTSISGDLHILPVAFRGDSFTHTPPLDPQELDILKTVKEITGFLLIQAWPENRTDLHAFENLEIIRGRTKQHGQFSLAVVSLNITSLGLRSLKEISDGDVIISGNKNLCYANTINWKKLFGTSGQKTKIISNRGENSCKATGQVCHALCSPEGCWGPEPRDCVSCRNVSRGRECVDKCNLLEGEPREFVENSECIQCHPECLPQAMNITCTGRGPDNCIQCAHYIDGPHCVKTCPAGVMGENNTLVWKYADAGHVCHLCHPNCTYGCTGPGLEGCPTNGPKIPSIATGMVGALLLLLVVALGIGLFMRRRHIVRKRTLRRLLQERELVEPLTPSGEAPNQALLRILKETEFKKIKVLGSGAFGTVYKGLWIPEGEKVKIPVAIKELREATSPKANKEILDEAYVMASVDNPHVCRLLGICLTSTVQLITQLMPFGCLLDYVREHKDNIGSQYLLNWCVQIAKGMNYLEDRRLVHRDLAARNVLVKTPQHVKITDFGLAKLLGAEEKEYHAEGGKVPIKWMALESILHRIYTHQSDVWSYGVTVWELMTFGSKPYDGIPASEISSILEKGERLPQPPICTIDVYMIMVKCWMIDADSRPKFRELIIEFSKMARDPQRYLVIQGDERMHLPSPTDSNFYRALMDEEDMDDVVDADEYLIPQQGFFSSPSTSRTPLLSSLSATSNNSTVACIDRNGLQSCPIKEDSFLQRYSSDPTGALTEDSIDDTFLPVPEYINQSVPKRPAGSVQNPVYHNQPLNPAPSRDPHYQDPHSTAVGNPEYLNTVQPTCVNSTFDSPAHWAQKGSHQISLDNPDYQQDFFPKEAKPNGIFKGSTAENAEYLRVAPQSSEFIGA
protocol: HTRF kinase assay, EGFR
particulars: read-out: IC50 (nM), EGFR; HTRF
metric: IC50 (nM)
Only the number, expressed in nM, is required.

If you can, please state the reported IC50 value of COC/C=C/C(=O)N1CC[C@@H](n2nc(-c3ccc(Oc4ccccc4)cc3)c(C(N)=O)c2N)C1 .
360

====

measuredTarget: CYP1A2 (Homo sapiens)
Sequence (P05177 whole entry): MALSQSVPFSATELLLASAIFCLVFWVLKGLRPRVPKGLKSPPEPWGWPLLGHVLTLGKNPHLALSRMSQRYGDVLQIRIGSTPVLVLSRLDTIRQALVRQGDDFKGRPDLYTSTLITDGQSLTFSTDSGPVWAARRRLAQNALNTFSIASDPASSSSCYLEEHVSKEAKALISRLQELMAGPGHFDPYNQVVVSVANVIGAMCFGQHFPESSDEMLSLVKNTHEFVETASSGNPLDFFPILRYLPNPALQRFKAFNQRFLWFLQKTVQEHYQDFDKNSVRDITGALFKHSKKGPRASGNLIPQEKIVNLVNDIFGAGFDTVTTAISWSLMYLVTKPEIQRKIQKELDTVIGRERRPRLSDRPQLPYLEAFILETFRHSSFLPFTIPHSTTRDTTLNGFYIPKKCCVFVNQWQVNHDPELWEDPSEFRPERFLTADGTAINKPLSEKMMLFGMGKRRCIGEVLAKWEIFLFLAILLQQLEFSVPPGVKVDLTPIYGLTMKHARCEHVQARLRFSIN
Assay type: in vitro ADME
pIC50: −log10 of the molar value.
metric: pIC50

Please look up its pIC50: COC/C=C/C(=O)N1CC[C@@H](n2nc(-c3ccc(Oc4ccccc4)cc3)c(C(N)=O)c2N)C1
< 4.60
